Recorded cell viability by entry
Tested on: UCD52 (cells of a triple-negative basal-like breast cancer xenograft);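 further: cells dissociated from PDX tumors propagated in female NSG mouse mammary fat pads, vehicle control 0.1% DMSO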
METHOD DESCRIPTION: cell viability (% of vehicle); higher = less cytotoxic
CONDITION INFO: 1 µM; 72 h
// print number alone

CO[C@H]1C[C@@H]2CC[C@@H](C)[C@@](O)(O2)C(=O)C(=O)N2CCCC[C@H]2C(=O)O[C@H]([C@H](C)C[C@@H]2CC[C@@H](OC(=O)C(C)(CO)CO)[C@H](OC)C2)CC(=O)[C@H](C)/C=C(\C)[C@@H](O)[C@@H](OC)C(=O)[C@H](C)C[C@H](C)/C=C/C=C/C=C/1C [Temsirolimus] ... 55.1

# input Look up cell viability: C=C1C(=CC=C2CCCC3(C)C2CCC3C(C)CCCC(C)C)CC(O)CC1O (stereo not given) [Alfacalcidol]
# output 59

# input Which measured cell viability value corresponds to C1=C\COCc2cc(ccc2OCCN2CCCC2)Nc2nccc(n2)-c2cccc(c2)COC/1 [Pacritinib] ?
# output 49.1

# input Requested read-out: cell viability. Entry: Cc1c(Cl)cccc1Nc1ccccc1C(=O)O [Tolfenamic Acid]
# output 102

# input Quick one: cell viability for CC[C@@H]1/C=C(\C)C[C@H](C)C[C@H](OC)[C@H]2O[C@@](O)(C(=O)C(=O)N3CCCC[C@H]3C(=O)O[C@H](/C(C)=C/[C@@H]3CC[C@H](Cl)[C@H](OC)C3)[C@H](C)[C@@H](O)CC1=O)[C@H](C)C[C@@H]2OC [Pimecrolimus] ?
# output 89

* * *

Tested on: HCI11 (cells of an ER-positive luminal breast cancer xenograft)
METHOD DESCRIPTION: cell viability (% of vehicle); higher = less cytotoxic
CONDITION INFO: 10 µM; 72 h
cell viability vs 100: less than gives 1 (yes); not less than gives 0 (no).

# input Quick check: does CCCC(CCC)C(=O)[O-].[Na+] [Valproic acid sodium salt (Sodium valproate)] have cell viability under 100?
# output 0 (no)

# input Lab note: cell viability threshold 100. Does this molecule come in strictly under it? CC(C)NCC(O)COc1ccc(CCOCC2CC2)cc1.Cl (configuration not stated) [Betaxolol HCl]
# output 0 (no)

# input Is it true that cell viability reported for COc1cc(Nc2ncc(F)c(Nc3ccc4c(n3)N(COP(=O)(O)O)C(=O)C(C)(C)O4)n2)cc(OC)c1OC [Fostamatinib (R788)] is less than 100?
# output 1 (yes)

# input Is cell viability of CCCNS(=O)(=O)Nc1ncnc(OCCOc2ncc(Br)cn2)c1-c1ccc(Br)cc1 [Macitentan] strictly below 100?
# output 1 (yes)

# input Find out if reported cell viability for COC(=O)C12CCC(C)(C)CC1C1C(=O)C=C3C4(C)C=C(C#N)C(=O)C(C)(C)C4CCC3(C)C1(C)CC2 (configuration not stated) [Bardoxolone methyl] is less than 100
# output 1 (yes)

* * *

Test system: HCI13 (cells of an ER-positive luminal breast cancer xenograft)
METHOD DESCRIPTION: cell viability (% of vehicle); higher = less cytotoxic
CONDITION INFO: 10 µM; 72 h
RECORDED ENDPOINT: cell viability
Answer as a number with no unit attached.

Solved cases (2 shown):
CN(C)Cc1c(C(=O)NCCOc2ccc(C(=O)NO)cc2)oc2ccccc12 ... 56.1
CS(=O)(=O)O.Cc1ccc(N(CC2=NCCN2)c2cccc(O)c2)cc1 [Phentolamine Mesylate] ... 124

As a next step, examine the compound that follows.
# input Find cell viability (HCI13) for the entry COCCCOc1cc(CC(CC(N)C(O)CC(C(=O)NCC(C)(C)C(N)=O)C(C)C)C(C)C)ccc1OC.COCCCOc1cc(CC(CC(N)C(O)CC(C(=O)NCC(C)(C)C(N)=O)C(C)C)C(C)C)ccc1OC.O=C(O)C=CC(=O)O (stereo not drawn) [Aliskiren Hemifumarate]
# output 107
